Anti-CD28 Fab signal in the presence of CD28 (phage binding ELISA) values, listed per item
# target desc: T1, Anti-CD28 Fab (SEQ ID NOs: 696, 697)
# T1 construct: Biotinylated Fab captured on neutravidin coated plates in the phage ELISA
# T1 sequence (VH, as listed by the source, chain 1 of 2): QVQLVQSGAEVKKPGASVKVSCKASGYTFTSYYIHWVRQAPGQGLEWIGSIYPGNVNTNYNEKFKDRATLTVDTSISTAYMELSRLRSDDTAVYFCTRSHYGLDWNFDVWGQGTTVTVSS
# T1 sequence (VL, as listed by the source, chain 2 of 2): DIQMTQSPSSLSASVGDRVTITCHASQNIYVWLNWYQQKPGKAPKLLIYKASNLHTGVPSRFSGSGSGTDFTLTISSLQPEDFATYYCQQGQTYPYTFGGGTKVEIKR
# experimental details: phage ELISA on captured anti-CD28 Fab; competitor CD28 antigen pre-incubated in the wells;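 further: clonal phage supernatants added to wells preloaded with CD28 antigen in blocking buffer, control wells buffer only, bound phage read via HRP-linked anti-M13 antibody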
Form: value (number only, do not type unit).

// known answers, use as guide
Give the measured Anti-CD28 Fab signal in the presence of CD28 (phage binding ELISA) of YCEGHSPLYMSKCL (not shown: fused to the pIII filament protein of the bacteriophage) [Phage-781] .
0.09

Returns the measured Anti-CD28 Fab signal in the presence of CD28 (phage binding ELISA) for the input binder. Input: YCDGHLAMYMDKCL (not shown: fused to the pIII filament protein of the bacteriophage) [Phage-787]
0.08

Item YCDGHSWEYIQKCL (Position 10 is printed as '--' and was read as unchanged (I); not shown: fused to the pIII filament protein of the bacteriophage) [Phage-776] has what recorded Anti-CD28 Fab signal in the presence of CD28 (phage binding ELISA)?
0.07

Which Anti-CD28 Fab signal in the presence of CD28 (phage binding ELISA) is reported for this binder? YCEGHSLEYMAKCL (not shown: fused to the pIII filament protein of the bacteriophage) [Phage-777]
0.08

---
Need Anti-CD28 Fab signal in the presence of CD28 (phage binding ELISA) of YCDGHTGVYFYKCL (not shown: fused to the pIII filament protein of the bacteriophage) [Phage-784] , thanks.
0.08
